biological target: Renin (Homo sapiens); test: Inhibition of human renal renin at the pH optimum 6.0.
Sequence (P00797 whole entry): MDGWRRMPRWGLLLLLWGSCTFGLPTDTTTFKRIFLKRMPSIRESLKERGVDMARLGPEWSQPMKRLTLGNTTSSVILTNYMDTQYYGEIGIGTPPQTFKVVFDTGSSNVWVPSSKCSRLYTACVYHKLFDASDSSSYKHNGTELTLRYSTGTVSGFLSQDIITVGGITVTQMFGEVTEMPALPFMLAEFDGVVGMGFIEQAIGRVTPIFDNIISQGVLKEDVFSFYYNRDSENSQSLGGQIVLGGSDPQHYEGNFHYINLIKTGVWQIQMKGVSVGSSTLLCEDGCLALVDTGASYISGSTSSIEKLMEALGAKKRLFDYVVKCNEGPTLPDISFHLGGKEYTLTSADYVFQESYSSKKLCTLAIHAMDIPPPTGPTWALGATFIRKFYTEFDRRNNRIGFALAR
Friendly reminder: IC50 below 1000 nM is fulfilled, at or above is not fulfilled.

{"columns": ["Compound", "Answer Label"],
 "data": [
  ["CC(C)CC[C@@H](O)[C@@H](CC(C)C)NC(=O)[C@H](Cc1c[nH]cn1)NC(=O)[C@H](Cc1ccccc1)NC(=O)OC(C)(C)C", "not fulfilled"],
  ["CC(C)C[C@@H](NC(=O)[C@H](C)NC(=O)[C@H](Cc1ccccc1)NC(=O)OC(C)(C)C)[C@H](O)CS(=O)(=O)C1CCCCC1", "not fulfilled"],
  ["CC(C)C[C@H](NC(=O)[C@H](C)NC(=O)[C@H](Cc1ccccc1)NC(=O)OC(C)(C)C)[C@@H](O)CSC(C)C", "fulfilled"],
  ["CC(C)C[C@@H](NC(=O)[C@H](C)NC(=O)[C@H](Cc1ccccc1)NC(=O)OC(C)(C)C)[C@H](O)CSc1ccccc1", "not fulfilled"],
  ["CC(C)C[C@H](NC(=O)[C@H](Cc1c[nH]cn1)NC(=O)[C@H](Cc1ccccc1)NC(=O)OC(C)(C)C)[C@@H](O)CSC1CCCCC1 (stereo in doubt; 56)", "fulfilled"],
  ["CC(C)C[C@@H](NC(=O)[C@H](Cc1c[nH]cn1)NC(=O)[C@H](Cc1ccccc1)NC(=O)OC(C)(C)C)[C@H](O)COC(C)C", "not fulfilled"],
  ["CC(C)C[C@@H](NC(=O)[C@H](Cc1c[nH]cn1)NC(=O)[C@H](Cc1ccccc1)NC(=O)OC(C)(C)C)[C@H](O)CS(=O)(=O)C1CCCCC1", "fulfilled"],
  ["CC(C)CSC[C@@H](O)[C@@H](CC(C)C)NC(=O)[C@H](C)NC(=O)[C@H](Cc1ccccc1)NC(=O)OC(C)(C)C", "not fulfilled"],
  ["CC(C)C[C@@H](NC(=O)[C@H](C)NC(=O)[C@H](Cc1ccccc1)NC(=O)OC(C)(C)C)[C@H](O)CSC(C)(C)C", "not fulfilled"],
  ["CC(C)COC[C@@H](O)[C@@H](CC(C)C)NC(=O)[C@H](Cc1c[nH]cn1)NC(=O)[C@H](Cc1ccccc1)NC(=O)OC(C)(C)C", "fulfilled"],
  ["CC(C)C[C@@H](NC(=O)[C@H](C)NC(=O)[C@H](Cc1ccccc1)NC(=O)OC(C)(C)C)[C@H](O)COC(C)C", "not fulfilled"],
  ["CC(C)C[C@@H](NC(=O)[C@H](Cc1c[nH]cn1)NC(=O)[C@H](Cc1cccc2ccccc12)NC(=O)OC(C)(C)C)[C@H](O)CSC1CCCCC1", "fulfilled"],
  ["CC(C)CCC[C@@H](O)[C@@H](CC(C)C)NC(=O)[C@H](Cc1c[nH]cn1)NC(=O)[C@H](Cc1ccccc1)NC(=O)OC(C)(C)C", "fulfilled"]
]}

Attribution: ChEMBL document CHEMBL1123909
